- Test system: ACHN
- Experimental Protocol: NCI tumour cell line growth inhibition, 48 h
Active and inactive are the calls of the source. No stated cut-off is given here; in the data, active = GI50 up to about 1.1 µM and inactive = higher.
The reply should be one of these categories: active, inactive

Query block: What classification did CCOC(=O)C1(N)CC1 end up with in this test?
Result block: inactive

Query block: What classification did C=CCNC(=O)/C=C\C(=O)O end up with in this test?
Result block: inactive

Query block: What classification did COc1ccc(S(=O)(=O)Nc2ccc(-c3csc(N4C(=O)/C(=C/c5ccccc5[N+](=O)[O-])N=C4c4ccccc4)n3)cc2)cc1Cl end up with in this test?
Result block: inactive

Query block: What classification did Nc1c(C(=O)NC23CC4CC(CC(C4)C2)C3)[n+]([O-])c2ccccc2[n+]1[O-] end up with in this test?
Result block: inactive

Query block: What classification did Cc1ccc(C(=O)Nc2ccc(S(=O)(=O)O)c3cc(S(=O)(=O)O)cc(S(=O)(=O)O)c23)cc1NC(=O)c1cccc(NC(=O)Nc2cccc(C(=O)Nc3cc(C(=O)Nc4ccc(S(=O)(=O)O)c5cc(S(=O)(=O)O)cc(S(=O)(=O)O)c45)ccc3C)c2)c1 [SURAMIN] end up with in this test?
Result block: inactive

Query block: What classification did COc1cccc(-c2cc(O)c3cc(N4CCOCC4)ccc3n2)c1 end up with in this test?
Result block: active

Query block: What classification did O=C1Cc2c([nH]c3ccc(Br)cc23)-c2ccccc2N1 [KENPAULLONE] end up with in this test?
Result block: inactive

Query block: What classification did CC1(C)CC(=O)C(CC2C(=O)CCCC2=O)C(=O)C1 end up with in this test?
Result block: inactive

Query block: What classification did c1ccc2sc(C3(N4CCCCCC4)CCCCC3)cc2c1 end up with in this test?
Result block: inactive

* * *

- System: SW-620
- Experimental Protocol: NCI tumour cell line growth inhibition, 48 h
Activity calls are given as the source filed them. No stated cut-off is given here; in the data, active = GI50 up to about 1.1 µM and inactive = higher.
The reply should be one of these categories: t for active, f for inactive

These solved cases illustrate the format of a correct answer.
| Compound | Label |
| --- | --- |
| NN=C1/C(=C\c2ccccc2)CCC/C1=C/c1ccccc1 | f |
| FC(F)(F)c1ccc(/N=C/C=C(/Nc2ccc(C(F)(F)F)cc2)c2ccc(Cl)cc2)cc1 | f |
| Cc1c2ccccc2c(/C=N/NC(=O)CSCC(=O)N/N=C/c2c3ccccc3c(C)c3ccccc23)c2ccccc12 | f |

Query block: What classification did COCOc1ccc(Cn2c(=O)n(C)c(=O)c3c2ncn3C)cc1[N+](=O)[O-] end up with in this test?
Result block: f

Query block: What classification did COCO[C@@H]1C[C@H]2C(O)Nc3ccccc3C(=O)N2C1 (some centres undefined) end up with in this test?
Result block: f

Query block: What classification did CCC(C)SC1SCC2C(=O)N(C)C3(CC3C)C(=O)OCC(NC(=O)c3nc4ccccc4cc3O)C(=O)NC(C)C(=O)N(C)C1C(=O)N(C)C1(CC1C)C(=O)OCC(NC(=O)c1nc3ccccc3cc1O)C(=O)NC(C)C(=O)N2C (centres undefined) end up with in this test?
Result block: t

Query block: What classification did NC(CSc1nc2ccccn2c1[N+](=O)[O-])C(=O)O (centres undefined) end up with in this test?
Result block: f

Query block: What classification did O=c1nc(N2CCCC2)nc(N2CCCC2)s1 end up with in this test?
Result block: f

* * *

- System: XF498
- Experimental Protocol: NCI tumour cell line growth inhibition, 48 h
Calls of active or inactive are those of the source. Cut-off read from the data, not from the text of the source: active = GI50 up to about 1.1 µM and inactive = higher.
Listed compounds paired with reported GI50

| Compound | GI50 |
| --- | --- |
| COC(=O)c1ccccc1/N=C/c1ccc(N(CCC#N)S(=O)(=O)c2ccccc2)cc1 | > 100 µM (inactive) |
| C[C@H]1CC[C@H](NC(=O)N(CCCl)N=O)CC1 | 45.7 µM (inactive) |
| O=c1cc(-c2ccccc2)oc2cc(O)cc(O)c12 | 20 µM (inactive) |
| CS(=O)(=O)N(CCC#N)c1ccc(C=O)cc1 | > 100 µM (inactive) |
| CC1(C)CC(=O)C(CC2C(=O)CCCC2=O)C(=O)C1 | 33.2 µM (inactive) |

Shift focus to the following entry.
Query block: Tell me measured GI50 for CSc1nc(NC2OCC(OC(C)=O)C(OC(C)=O)C2OC(C)=O)c(/N=C(\C)C(C)=O)c(=O)n1C (stereo unspecified) please.
Result block: > 100 µM (inactive)

* * *

- Test system: T47D
- Experimental Protocol: NCI tumour cell line growth inhibition, 48 h
The source made the active and inactive calls. Cut-off read from the data, not from the text of the source: active = GI50 up to about 1.1 µM and inactive = higher.
The reply should be one of these categories: yes (active), no (inactive)

| Compound | System Name | Label |
| --- | --- | --- |
| Cc1ccc(OCC2OC(n3cnc4c(Cl)nc(Nc5cc(Cl)cc(Cl)c5)nc43)CC2Oc2ccc(C)cc2)cc1 (centres undefined) | T47D | no |
| CC(C)=CCCC1(Sc2ccccc2)C(=O)OCC1C=C(C)C (centres undefined) | T47D | no |
| CCN(CC)CCNc1ccc([N+](=O)[O-])c2nc3ccc(OC)cc3c(N)c12 | T47D | no |
| C=CCc1c(O)c2nsnc2c2nsnc12 | T47D | no |
| Cc1cc2nc3c(C#N)c(C)c(CCCl)c(Cl)n3c2cc1C | T47D | no |

Query block: What classification did C[C@@H]1CC[C@H]2C(C)(C)[C@H]3C[C@@]12CC[C@@]3(C)O end up with in this test?
Result block: no

Query block: What classification did CC(C)CCC[C@@H](C)[C@H]1CC[C@H]2[C@@H]3CC[C@H]4C[C@H](N)CC[C@]4(C)[C@H]3CC[C@]12C end up with in this test?
Result block: no

Query block: What classification did COC12OC3CC4(C)C(=CC3OC(OC(C)C1O)C2O)CCC1C4CCC2(C)C(c3ccc(=O)oc3)CCC12O (centres undefined) end up with in this test?
Result block: yes

Query block: What classification did CC(C)CCCC(C)[C@H]1CC[C@H]2n3c(nnc3-c3ccccc3)CCC[C@]12C (some centres undefined) end up with in this test?
Result block: no

* * *

- Tested on: SNB-19
- Experimental Protocol: NCI tumour cell line growth inhibition, 48 h
Activity calls are given as the source filed them. Cut-off read from the data, not from the text of the source: active = GI50 up to about 1.1 µM and inactive = higher.
Quantity: GI50

Worked examples follow.
| Molecule | Readout Value |
| --- | --- |
| COc1ccc2c(c1OC)C(C(Cl)(Cl)Cl)N1CCc3cc4c(cc3C1=C2)OCO4 (stereo not given) | 5.82 µM (inactive) |
| COc1ccc2[nH]c(S(=O)(=O)N3CC(CCl)c4ccc(N)cc43)cc2c1 (stereo not given) | 8.22 µM (inactive) |
| O=C1CC(Cl)c2c(Cl)sc(Cl)c21 (stereo not given) | 11.4 µM (inactive) |
| O=C(Nc1ccc(Cl)cc1)c1cc(S(=O)(=O)Nc2n[nH]c(=O)n2-c2ccccc2)c(S)cc1Cl | > 100 µM (inactive) |

Shift focus to the following entry.
Query block: Tell me measured GI50 for N#Cc1ccc(/C=C2\Cc3ccccc3C2=O)cc1 please.
Result block: > 100 µM (inactive)

* * *

Listed compounds paired with reported GI50
- Test system: SNB-75
- Experimental Protocol: NCI tumour cell line growth inhibition, 48 h
Active and inactive are the calls of the source. Rule as the data show it: active = GI50 up to about 1.1 µM and inactive = higher.

| Compound | GI50 |
| --- | --- |
| O=c1cc(O)ccn1C1C=C(CO)C(O)C1O (stereo not given) | > 625 µM (inactive) |

Query block: Tell me measured GI50 for CCN1CCCn2c(=O)[nH]c3cc(Br)cc1c32 please.
Result block: 16.7 µM (inactive)

Query block: Tell me measured GI50 for O=C(NCCN1CCOCC1)c1ccc2cc(C(=O)N3CC(CCl)c4ccc([N+](=O)[O-])cc43)[nH]c2c1 (stereo not given) please.
Result block: 6.7 µM (inactive)

Query block: Tell me measured GI50 for COc1cc(Cn2c3c(c4c(C(=O)NCCN(C)C)c(O)ccc42)C(=O)c2ccccc2C3=O)cc(OC)c1 please.
Result block: 1.91 µM (inactive)

Query block: Tell me measured GI50 for CC(=O)Nc1ccccc1-c1nc2ccccc2nc1C please.
Result block: 81.5 µM (inactive)

* * *

Listed compounds paired with reported GI50
- Tested on: Malme-3M
- Experimental Protocol: NCI tumour cell line growth inhibition, 48 h
Calls of active or inactive are those of the source. No stated cut-off is given here; in the data, active = GI50 up to about 1.1 µM and inactive = higher.

| Compound | Readout Value |
| --- | --- |
| CC1(O)CCn2c(=O)c3cc4ccccc4cc3c(=O)n2C1O (centres undefined) | > 100 µM (inactive) |
| O=C1NC2C(=O)N(Cc3ccccc3)C(=O)C2N1 (centres undefined) | > 100 µM (inactive) |
| COC1C(C)OC(OC2CC(C)(O)Cc3cc4c(c(O)c32)C(=O)c2c(O)cc3c(c2C4=O)OC2OC3(C)C(O)C(N(C)C)C2O)C(OC)C1(C)OC (centres undefined) | 0.0561 µM (active) |
| CCOC(=O)Cc1nc2ccc3c(c2nc1O)C(=O)c1ccccc1C3=O | 60.7 µM (inactive) |
| Cc1c(NC(=O)CSC(=S)N2CCN(Cc3ccccc3)CC2)c(=O)n(-c2ccccc2)n1C | > 100 µM (inactive) |
| COc1ccc(-c2c(-c3ccccc3)c(C)nc3nc(SC)nc(SC)c23)cc1OC | 10.1 µM (inactive) |
| CC(=O)C1=C(C)N(c2ccc(C)cc2)C2(O)C=CC(O)=C3C(=O)c4ccccc4C(=O)C312 (centres undefined) | 1.91 µM (inactive) |
| CC1=NN(c2nc(N)nc(NS(=O)(=O)c3cc(C)c(Cl)cc3S)n2)C(C)(C)C1 | > 10 µM (inactive) |

Shift focus to the following entry.
Query block: Report value: GI50, system: Malme-3M, compound: COc1ccc(-c2cc(=O)c3c(O)cc(O)cc3o2)c(OC)c1OC
Result block: > 100 µM (inactive)
